- Test system: MRSA (ATCC CRM 12493)
- Format: cell-based, methicillin-resistant S. aureus
- protocol-conditions: ATCC CRM 12493
Where no end group is shown, it is not given here.
value-type: MBC

// MBC lookup, key: FVNVLDKIR-NH2 [FV-9, FVNVLDKIR-NH2] >512 µM

Please report the recorded MBC for LFVNVLDKIR-NH2 [LF-10, LFVNVLDKIR-NH2] . >512 µM

Endpoint output: MBC of GLWNSIKIAGKKLFVNVLDKIR-NH2 [GL-22] . Value? 8 µM

Param item = FVNVLDKI-NH2 [FV-8, FVNVLDKI-NH2] ; retrieve measured MBC. >512 µM
